# MEASURED_TARGET: T1, human prolactin receptor (PRLR) (human, UniProt P16471 25-622)
# T1 sequence: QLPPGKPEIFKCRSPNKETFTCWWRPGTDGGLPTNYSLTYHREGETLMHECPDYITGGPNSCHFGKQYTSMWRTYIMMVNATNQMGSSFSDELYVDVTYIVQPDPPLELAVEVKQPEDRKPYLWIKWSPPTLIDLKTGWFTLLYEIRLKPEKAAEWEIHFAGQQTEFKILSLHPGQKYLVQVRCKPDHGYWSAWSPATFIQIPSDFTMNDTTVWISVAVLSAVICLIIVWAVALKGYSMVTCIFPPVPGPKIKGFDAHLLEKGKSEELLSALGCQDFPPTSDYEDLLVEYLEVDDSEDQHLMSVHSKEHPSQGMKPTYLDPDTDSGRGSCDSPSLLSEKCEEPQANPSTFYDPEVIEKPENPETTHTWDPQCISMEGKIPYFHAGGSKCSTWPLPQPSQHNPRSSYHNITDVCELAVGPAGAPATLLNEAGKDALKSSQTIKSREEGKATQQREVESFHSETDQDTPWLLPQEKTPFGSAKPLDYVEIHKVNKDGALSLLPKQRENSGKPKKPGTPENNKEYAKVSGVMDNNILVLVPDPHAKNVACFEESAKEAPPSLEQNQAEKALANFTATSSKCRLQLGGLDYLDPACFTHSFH
# EXPERIMENT_DESCRIPTION: cell-based or functional assay
OBSERVATION_TYPE: IC50, cell viability, MCF7/ATCC cells (nM)

BINDER	OBSERVATION_TYPE	READING_UNIT	REPORTED_RESULT
H1H6958N2-DM1 (antibody, human IgG1, V domains shown, DM1 conjugated through SMCC linker; attachment residues not stated) VH: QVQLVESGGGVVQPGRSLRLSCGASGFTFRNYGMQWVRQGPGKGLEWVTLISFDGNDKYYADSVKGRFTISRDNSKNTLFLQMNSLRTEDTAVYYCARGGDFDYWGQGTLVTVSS VL: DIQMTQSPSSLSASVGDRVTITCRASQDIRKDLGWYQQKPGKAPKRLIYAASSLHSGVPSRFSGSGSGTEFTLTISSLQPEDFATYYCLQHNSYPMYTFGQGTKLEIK	IC50, cell viability, MCF7/ATCC cells	nM	70
H1H6782P-DM1 (antibody, human IgG1, V domains shown, DM1 conjugated through SMCC linker; attachment residues not stated) VH: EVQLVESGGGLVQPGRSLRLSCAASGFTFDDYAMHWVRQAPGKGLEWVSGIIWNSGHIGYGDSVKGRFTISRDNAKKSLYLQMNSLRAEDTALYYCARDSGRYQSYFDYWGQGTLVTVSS VL: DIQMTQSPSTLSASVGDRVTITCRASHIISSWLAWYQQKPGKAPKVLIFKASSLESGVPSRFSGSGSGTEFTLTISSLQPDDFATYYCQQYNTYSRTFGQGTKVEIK	IC50, cell viability, MCF7/ATCC cells	nM	250
H1H6953N-mc-VC-PAB-MeNHC3-May (antibody, human IgG1, V domains shown, MeNHC3-May conjugated through mc-VC-PAB linker; attachment residues not stated) VH: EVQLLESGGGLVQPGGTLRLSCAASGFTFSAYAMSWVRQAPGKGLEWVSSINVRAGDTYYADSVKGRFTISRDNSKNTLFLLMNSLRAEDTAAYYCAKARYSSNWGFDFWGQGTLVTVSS VL: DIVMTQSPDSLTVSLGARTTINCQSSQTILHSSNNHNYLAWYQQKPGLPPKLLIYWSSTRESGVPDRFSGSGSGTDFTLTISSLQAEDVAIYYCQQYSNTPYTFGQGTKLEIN	IC50, cell viability, MCF7/ATCC cells	nM	150
H1H6782P-mc-VC-PAB-MMD (antibody, human IgG1, V domains shown, MMD conjugated through mc-VC-PAB linker; attachment residues not stated) VH: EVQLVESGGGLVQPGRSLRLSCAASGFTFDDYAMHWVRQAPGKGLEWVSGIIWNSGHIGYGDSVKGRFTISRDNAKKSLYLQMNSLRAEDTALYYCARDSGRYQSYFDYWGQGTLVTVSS VL: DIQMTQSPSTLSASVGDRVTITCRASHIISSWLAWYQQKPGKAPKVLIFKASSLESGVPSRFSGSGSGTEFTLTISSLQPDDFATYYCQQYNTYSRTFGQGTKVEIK	IC50, cell viability, MCF7/ATCC cells	nM	200
H1H6975N-DM1 (antibody, human IgG1, V domains shown, DM1 conjugated through SMCC linker; attachment residues not stated) VH: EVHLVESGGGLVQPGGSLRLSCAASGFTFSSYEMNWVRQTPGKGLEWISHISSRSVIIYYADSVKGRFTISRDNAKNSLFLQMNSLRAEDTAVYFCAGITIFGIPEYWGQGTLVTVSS VL: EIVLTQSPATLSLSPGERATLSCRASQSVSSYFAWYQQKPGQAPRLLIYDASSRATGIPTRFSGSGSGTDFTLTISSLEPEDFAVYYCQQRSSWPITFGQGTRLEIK	IC50, cell viability, MCF7/ATCC cells	nM	200
H1H6958N2-mc-VC-PAB-MMAE (antibody, human IgG1, V domains shown, MMAE conjugated through cleavable mc-vc-PAB linker; attachment residues not stated) VH: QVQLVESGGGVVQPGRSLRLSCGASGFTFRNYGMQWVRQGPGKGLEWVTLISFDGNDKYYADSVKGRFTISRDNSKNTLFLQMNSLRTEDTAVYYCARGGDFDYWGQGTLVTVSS VL: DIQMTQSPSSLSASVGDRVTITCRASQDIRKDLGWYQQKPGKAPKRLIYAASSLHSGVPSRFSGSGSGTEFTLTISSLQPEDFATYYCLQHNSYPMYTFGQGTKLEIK	IC50, cell viability, MCF7/ATCC cells	nM	150
H1H6953N-mc-VC-PAB-MMD (antibody, human IgG1, V domains shown, MMD conjugated through mc-VC-PAB linker; attachment residues not stated) VH: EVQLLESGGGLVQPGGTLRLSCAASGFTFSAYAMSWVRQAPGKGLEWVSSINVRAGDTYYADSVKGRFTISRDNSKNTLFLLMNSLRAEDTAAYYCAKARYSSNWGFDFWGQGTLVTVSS VL: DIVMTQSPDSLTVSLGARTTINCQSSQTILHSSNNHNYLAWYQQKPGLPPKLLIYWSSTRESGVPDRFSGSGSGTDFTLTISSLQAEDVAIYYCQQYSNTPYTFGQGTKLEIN	IC50, cell viability, MCF7/ATCC cells	nM	300
H1H6953N-DM1 (antibody, human IgG1, V domains shown, DM1 conjugated through SMCC linker; attachment residues not stated) VH: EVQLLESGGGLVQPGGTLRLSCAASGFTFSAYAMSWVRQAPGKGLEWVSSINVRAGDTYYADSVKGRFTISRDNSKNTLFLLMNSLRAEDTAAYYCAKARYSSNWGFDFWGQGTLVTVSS VL: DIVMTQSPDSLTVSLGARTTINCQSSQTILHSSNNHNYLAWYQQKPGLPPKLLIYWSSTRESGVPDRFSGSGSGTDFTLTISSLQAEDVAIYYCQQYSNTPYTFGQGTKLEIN	IC50, cell viability, MCF7/ATCC cells	nM	90
H1H6765P-mc-VC-PAB-MMAE (antibody, human IgG1, V domains shown, MMAE conjugated through cleavable mc-vc-PAB linker; attachment residues not stated) VH: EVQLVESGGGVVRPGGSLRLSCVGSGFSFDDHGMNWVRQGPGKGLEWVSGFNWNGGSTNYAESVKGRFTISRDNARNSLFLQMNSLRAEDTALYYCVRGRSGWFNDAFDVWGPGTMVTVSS VL: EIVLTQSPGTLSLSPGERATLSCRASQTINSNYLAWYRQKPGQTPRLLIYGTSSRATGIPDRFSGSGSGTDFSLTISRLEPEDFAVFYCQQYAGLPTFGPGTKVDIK	IC50, cell viability, MCF7/ATCC cells	nM	150
H1H6765P-DM1 (antibody, human IgG1, V domains shown, DM1 conjugated through SMCC linker; attachment residues not stated) VH: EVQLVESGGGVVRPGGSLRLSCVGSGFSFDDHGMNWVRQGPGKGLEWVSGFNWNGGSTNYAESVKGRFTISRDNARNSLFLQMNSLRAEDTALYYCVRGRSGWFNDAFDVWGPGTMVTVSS VL: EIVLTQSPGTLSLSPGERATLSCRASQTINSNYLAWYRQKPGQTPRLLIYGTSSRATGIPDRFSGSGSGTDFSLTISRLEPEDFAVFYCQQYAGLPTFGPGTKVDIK	IC50, cell viability, MCF7/ATCC cells	nM	150
H1H6975P-mc-VC-PAB-MMD (antibody, human IgG1, V domains shown, MMD conjugated through mc-VC-PAB linker; attachment residues not stated) VH: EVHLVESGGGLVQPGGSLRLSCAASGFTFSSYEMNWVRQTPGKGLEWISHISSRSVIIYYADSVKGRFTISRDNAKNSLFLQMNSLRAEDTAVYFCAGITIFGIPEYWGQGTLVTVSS VL: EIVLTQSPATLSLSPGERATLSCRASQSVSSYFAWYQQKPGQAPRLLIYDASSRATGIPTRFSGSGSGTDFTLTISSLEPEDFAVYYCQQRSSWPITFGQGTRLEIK	IC50, cell viability, MCF7/ATCC cells	nM	150

Cited source for all entries: patent US20180185504A1
